# Procedure text: Metabolic stability in human liver microsomes assessed as clearance by LC/MS-MS analysis
# Type: ADME, Microsome
Measured parameter: CLhep predicted
Report field: quantity (unit follows the number).

Example cases with answers are listed next.
Cn1cnc2ncn(Cc3nn([C@@H]4CO[C@@H](c5ccc(Cl)cc5)C4)c(=O)o3)c(=O)c21	9.5 mL/min/kg
Cn1cnc2ncn(Cc3nn(CCCOc4cccc(Cl)c4)c(=O)o3)c(=O)c21	16 mL/min/kg
Cn1cnc2ncn(Cc3nn([C@@H]4CC[C@@H](Oc5cccc(F)c5)C4)c(=O)o3)c(=O)c21	8 mL/min/kg
Cn1cnc2ncn(Cc3nn([C@H]4C[C@H](Oc5cccc(Cl)c5)C4)c(=O)o3)c(=O)c21	6 mL/min/kg

Per the records, this compound ( Cn1cnc2ncn(Cc3nn([C@@H]4CC[C@@H](c5ccc(Cl)cc5)C4)c(=O)o3)c(=O)c21 ) has CLhep predicted equal to 12 mL/min/kg

====

# Procedure text: Metabolic stability in rat liver microsomes assessed as clearance by LC/MS-MS analysis
# Format: ADME, Microsome
Measured parameter: CLhep predicted (L/h/kg)
Enter your answer as a number in L/h/kg; do not include the unit.

Example cases with answers are listed next.
Cc1cnn2ncn(Cc3nc([C@H]4[C@@H]5CN(c6cccc(Cl)c6)C[C@@H]54)no3)c(=O)c12	1.92
Cn1cnc2ncn(Cc3nc(CCc4ccc(Cl)cc4)no3)c(=O)c21	2.1
O=c1c2cccnc2ncn1Cc1nc([C@H]2[C@@H]3CN(c4cc(Cl)ccn4)C[C@@H]32)no1	0.78
Cc1ncn2ncn(Cc3nc([C@H]4[C@@H]5CN(c6cccc(Cl)c6)C[C@@H]54)no3)c(=O)c12	1.62
Cn1cnc2ncn(Cc3nn(CCOc4cccc(Cl)c4)c(=O)o3)c(=O)c21	2.04

Per the records, this molecule ( Cn1cnc2ncn(Cc3nn([C@@H]4CO[C@@H](c5ccc(Cl)cc5)C4)c(=O)o3)c(=O)c21 ) has CLhep predicted equal to 1.38

====

# logD per record follows
# Procedure text: Lipophilicity, logD of compound
# Assay type: physicochemical
# Recorded conditions: octanol/water
API note: the answer field is a bare number with no unit suffix.

Example cases with answers are listed next.
Cn1cnc2ncn(Cc3nc([C@H]4[C@@H]5CN(c6cccc(Cl)c6)C[C@@H]54)no3)c(=O)c21	2.9
Cn1cnc2ncn(Cc3nn([C@H]4CC[C@H](c5ccc(Cl)cc5)CC4)c(=O)o3)c(=O)c21	2.6
Cc1ncn2ncn(Cc3nc([C@H]4[C@@H]5CN(c6cccc(Cl)c6)C[C@@H]54)no3)c(=O)c12	2.6
Cn1cnc2ncn(Cc3nc([C@H]4[C@@H]5C=C(c6ccccc6)C[C@@H]54)no3)c(=O)c21	2.7

Per the records, this molecule ( Cn1cnc2ncn(Cc3nc([C@H]4[C@@H]5C[C@H](c6ccccc6)C[C@@H]54)no3)c(=O)c21 ) has logD equal to 2.7

Per the records, this molecule ( Cc1cnn2ncn(Cc3nc([C@H]4[C@@H]5CN(c6cccc(Cl)c6)C[C@@H]54)no3)c(=O)c12 ) has logD equal to 3

Per the records, this molecule ( Cn1cnc2ncn(Cc3nc([C@@H]4[C@@H]5Cc6c(Cl)cccc6[C@@H]54)no3)c(=O)c21 ) has logD equal to 2.6

Per the records, this molecule ( Cn1cnc2ncn(Cc3nn(CCCOc4cccc(Cl)c4)c(=O)o3)c(=O)c21 ) has logD equal to 1.3

Per the records, this molecule ( Cn1cnc2ncn(Cc3nn([C@@H]4CO[C@@H](c5ccc(Cl)cc5)C4)c(=O)o3)c(=O)c21 ) has logD equal to 1.6
